Listed here: items and their measured amyloid nucleation score.
Assay: amyloid nucleation score (Sup35N fusion, yeast selection) (log enrichment); library NNK1; higher = more nucleation; inactive = no reads after selection;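 also: zero at mode of non-aggregating sequences after 7 days selection at 30°C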
MEASUREMENT LABEL: amyloid nucleation score

>>> print(df.to_string())
               substance  observed_value
 0  YTPGSGVLRAGTADQLMRNF           0.522
 1  YMNNRLRWNRRHPYLSCFMS             1.1
 2  RSADTLVEKNLIYGRWVRKS            0.93
 3  WFSVDFNNHLWFQNSYSMWG           0.156
 4  ECCQDVIFFVAQINTCIEVT           0.221
 5  TRCCGFKRGGFVSYWMGSRP            1.01
 6         THARMKFLWFARF          -0.282
 7  TRCKTGSLRLNYVDISQPHV           0.683
 8  FSVKFVSNPFSQLLSARPWW          -0.603
 9  TWNAFRRLWVTSDGYTRVLT            1.23
10  ISLRYFPNYISFHKLGFRSA           0.523
11  RHGVRYSKLELINTREFYNE          -0.246
12              FMYSKPVI          -0.314
13         IKLGVFRIKSSFN           0.708
14  CTSDHSSFAKFLLLTCCLLL           0.841
15              VKFDLMAI          -0.777
16  YSARLLSERIKWHFTLMMND            0.41
17       APEFFNSDRASIAKF          -0.558
18  CWNVLNCMHAFRCGPMNQRR           0.831
19    GVSKCQDEYSGLGNRNYM           -1.28
20  CEMKASGLKYVHRFNSIPVM           0.984
21      STFIVGMRYVPLSKGR          -0.513
22  YNGGLRVMICLPECLLFSLI          -0.246
23  ISEGVIRDMSNRVRGSMQEI          -0.175
24         SLLTRDVYNRRAR          -0.562
25  EGGRFKHRMNSCHYNSFGLH          -0.255
26        RELLGGVRNRLVYR          -0.192
27  CRSSVFKYVPVSNIFDYFSI           0.921
28  MIVRSVILNDCWAGGACLHF            6.94
29               WLHIPYS           0.547
30  IFVSSVRGAPYIYKCTKSRM          -0.504
31  RIRLVCHCPFSYRLAVPLSE            3.99
32          RQGLSAGSRYIK          -0.311
33  LSLYESLSNPLVRSYRLFCR           0.517
34  GSLLICEWLRFSRGRGVRSY            1.11
35  VVTWVYASSVVLSSLPREGA          -0.115
36       NPSIPCPQAACNMWY           0.819
37               YIVPQLT            1.47
38    IISVTVFFKCARLEILNR           -0.64
